Data credit: the supplement of paper PMC6755084

B1: minF1; a variant is named by its letters at N, in order (parent)
chain: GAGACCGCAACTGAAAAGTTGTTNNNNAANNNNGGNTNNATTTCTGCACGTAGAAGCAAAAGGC

variants of: B1; experiment: fraction ligated after 30 min (ligated reads / total reads); higher = more ligase activity; details: with F1*subA RNA substrate (template-directed ligation), 42 °C
PROPERTY NAME: fraction ligated
Format: numeric value only, no unit, no commentary.

Which fraction ligated reading was recorded for the variant ATCGATATGTG ?
0.00524

Which fraction ligated reading was recorded for the variant ATCAATGGGTT A28G G34A G35T T37G ?
0.00268

Which fraction ligated reading was recorded for the variant TCAGGGATGTA T23A A29T ?
0.00445

Which fraction ligated reading was recorded for the variant TCAGATATTGA ?
0.00261

Which fraction ligated reading was recorded for the variant TCAGGGATGTA ?
0.00309

Which fraction ligated reading was recorded for the variant ATGATGGAGTA ?
0.00203

Which fraction ligated reading was recorded for the variant TCGAGGATTGA A29T ?
0.00979

Which fraction ligated reading was recorded for the variant ATCAAATGGTT A28G G34A G35T T37G ?
0.00118

Which fraction ligated reading was recorded for the variant ATCAAATGGTT A28G T37G A40G ?
0.0011

Which fraction ligated reading was recorded for the variant CAGAGATGTGA T23A A29T ?
0.00283

Which fraction ligated reading was recorded for the variant TCAGATGGGTA ?
0.000871

Which fraction ligated reading was recorded for the variant TCAGATGGGTT G34A T37G A40G ?
0.00106

Which fraction ligated reading was recorded for the variant ACAGAGGGTGA ?
0.00282

Which fraction ligated reading was recorded for the variant ATGATGGAGTA G34T ?
0.00469

Which fraction ligated reading was recorded for the variant ACAATGGAGTG G34T ?
0.0274
